- Tested on: NCI-H460 lung
Log the outcome using a class from active, inactive

Assay result, entry `N[C@@H]1CCCC[C@@H]1N.O=P([O-])([O-])CN(CP(=O)([O-])[O-])CP(=O)([O-])[O-].[Pt+2]` — outcome? inactive

Assay result, entry `Cc1cc(Cl)ccc1NS(=O)(=O)c1ccc(-c2cnc(C3CC3)o2)cc1` — outcome? active

Assay result, entry `Oc1[nH]c2cc(Cl)ccc2c1/C=c1/ccc2c(c1)N=C(c1cc(F)cc(F)c1)N=2` — outcome? inactive

Assay result, entry `O=C(Nc1ccccc1C(=O)N/N=C(\c1ccccc1)c1ccccn1)c1ccc(F)cc1` — outcome? active

----------
- Tested on: SNB-75 CNS
- measurement description: NCI tumour cell line growth inhibition, 48 h
experimental endpoint: TGI

Short answer for `Oc1ccc(Cl)cc1Cc1cc(Cl)ccc1O` : TGI was 24.2 µM

Short answer for CC1=C(C(=O)Nc2ccc(Cl)c(Cl)c2)C(c2ccccc2O)NC(=O)N1 (configuration not stated) : TGI was > 50 µM

Short answer for `COc1ccc(S(=O)(=O)N(C)CC(=O)O)cc1` : TGI was > 100 µM

Short answer for `CN1CCc2c1nc(-c1ccc([N+](=O)[O-])cc1)c1c2N(C)CC1` : TGI was > 100 µM

Short answer for `Cn1c2ccccc2n2c3ncccc3c(=S)c(C#N)c12` : TGI was > 100 µM

Short answer for `CSc1ccc(C(=O)C(=O)c2ccc(SC)s2)s1` : TGI was > 10 µM

Short answer for NC1=NCC(CN2CCCC2)O1 (configuration not stated) : TGI was > 100 µM

----------
- System: HT29 colon
- measurement description: NCI tumour cell line growth inhibition, 48 h
Measured TGI values are reported for all entries that follow.

Reference set, count: 10
1) CC(C)(C)OC(=O)n1cc(C2CN(O)C(=O)C23CCC(=O)N3Cc2ccccc2)c2ccccc21 (stereo unspecified) = > 100 µM
2) COc1ccc(-c2cc(C(O)C3CCCCN3)c3ccccc3n2)cc1 (stereo unspecified) = 11.5 µM
3) O=c1cc(NCc2ccncc2)[nH]c(=O)[nH]1 = > 100 µM
4) Cc1ccc(/C(O)=C/c2nc3ccc([N+](=O)[O-])cc3nc2/C=C(\O)c2ccc(C)cc2)cc1 = > 100 µM
5) CC1=NN(C(=O)c2ccccc2O)C(=O)/C1=C/c1cccc([N+](=O)[O-])c1 = > 100 µM
6) Cc1cc2cc3c(cc2c(-c2ccc(N)cc2)n1)OCO3 = 62.2 µM
7) Cc1cc(C(O)CN(C)C)cc2c1ccc1cc(C(C)C)ccc12 (stereo unspecified) = 3.62 µM
8) CCOP(=O)(OCC)/C(C#N)=C/c1cccn1Cc1ccccc1 = > 100 µM
9) N#Cc1nc(C#N)n(C(=O)c2ccccc2)c1NC(=O)c1ccccc1 = > 100 µM
10) Cn1c2ccccc2n2c3ncccc3c(=S)c(C#N)c12 = > 100 µM

// molecule NC(=O)Cc1nc2c(=O)[nH]cnc2n1C1OC(CO)C(O)C1O (stereo unspecified) , assay HT29 colon, TGI value: > 100 µM

----------
- Tested on: LOX IMVI melanoma
- measurement description: NCI tumour cell line growth inhibition, 48 h
experimental endpoint: TGI (µM)
Only the number, expressed in µM, is required.

1. CSc1ccc(/C=C2\N=C(c3ccccc3)N(/N=C/c3cc4cc(C)ccc4nc3Cl)C2=O)cc1 = 44.6
2. C=[CH][Sn]([CH]=C)([O]c1cccc2cccnc12)[O]c1cccc2cccnc12 = 4.86
3. O=C(Cc1csc2nc(-c3ccc(Br)cc3)cn12)N/N=C/c1ccc(O)cc1 = 26.1
4. CC(=O)O[C@H]1CC[C@@]2(C)[C@H](CC[C@@H]3[C@@H]2CC[C@]2(C)[C@@H](c4ccc(=O)oc4)C[C@H]4O[C@]342)C1 = 7.67
5. Cc1cc(Cl)ccc1NS(=O)(=O)c1ccc(-c2cnc(C3CC3)o2)cc1 = 14.2

Shift focus to the following entry.
Short answer for `Oc1[nH]c2cc(Cl)ccc2c1/C=c1/ccc2c(c1)N=C(c1cc(F)cc(F)c1)N=2` : TGI was 15.2

----------
Notes on GI50 obtained with OVCAR-5 ovarian.

1. CCC(CC(C)C)Nc1ccc(NC(CC)CC(C)C)cc1 (configuration not stated) = 15.6 µM
2. O=c1[nH]c2ccccc2n1-c1n[nH]c2ccccc12 = 33.6 µM
3. CC1CC2(C)CC(=O)C1C1C(=O)N(CCN3CCCCC3)C(=O)C12 (configuration not stated) = > 100 µM
4. CC1(C)OC2C(COS(N)(=O)=O)SC(n3cnc4cncnc43)C2O1 (configuration not stated) = > 100 µM
5. O=c1c2ccccc2oc2ccc(OCCCCCCN3CCCCCC3)cc12 = 3.24 µM
6. Oc1ccc(Cl)cc1Cc1cc(Cl)ccc1O = 4.79 µM

Short answer for COc1cccc(C2NC(=S)NC(C)=C2C(=O)Nc2ccc(Cl)c(Cl)c2)c1 (configuration not stated) : GI50 was 28.7 µM

Short answer for `O=C(Cc1csc2nc(-c3ccc(Br)cc3)cn12)N/N=C/c1ccc(O)cc1` : GI50 was 27.6 µM

Short answer for CC1COCC(C)N1C1=C(Cl)C(=O)c2ccccc2C1=O (configuration not stated) : GI50 was 17 µM

Short answer for `Cc1cc(Cl)ccc1Nc1nc(C(F)(F)F)ccc1C(=O)N1CCN(c2cccc(Cl)c2)CC1` : GI50 was > 100 µM

Short answer for `CC(=O)N(Cc1ccccc1)c1ccccc1I(=O)=O` : GI50 was > 100 µM

Short answer for `COc1cc(NC(=O)Nc2cnc(Nc3ccc(N4CCOCC4)cc3)nc2Oc2cccc(OC)c2)cc(OC)c1` : GI50 was 6.49 µM

----------
- Test system: NCI-H460 lung
- measurement description: NCI tumour cell line growth inhibition, 48 h
experimental endpoint: TGI

Short answer for `O=C(Nc1cccc(-n2cc(-c3ccncc3)c(-c3ccc(O)c(Cl)c3)n2)c1)c1cccc(C(F)(F)F)c1` : TGI was > 100 µM

Short answer for CC1OC2OC3C(OCC(O)C3O)OC(=O)[C@]34CCC(C)(C)CC3C3=CCC5[C@@]6(C)C[C@H](O)[C@H](OC7OC(CO)C(O)C(O)C7OC7OCC(OC(=O)CC(C)(O)CC(=O)OC1C(OC1OC(CO)C(O)C(O)C1O)C2O)C(O)C7O)[C@@](C)(CO)C6CC[C@@]5(C)[C@]3(C)CC4 (some centres not stated) : TGI was 22.7 µM

Short answer for COc1cccc(NC(=O)C(=O)C(C(C)=O)c2nc3ccc(Cl)cc3[nH]c2=O)c1 (configuration not stated) : TGI was > 100 µM

----------
- System: T-47D breast
- measurement description: NCI tumour cell line growth inhibition, 48 h
Measured TGI values are reported for all entries that follow.

Reference set, count: 6
1) CCOP(=O)(Nc1ccc2oc(=O)c3ccccc3c2c1)OCC = > 100 µM
2) COc1cc(NC(=O)Nc2cnc(Nc3ccc(N4CCOCC4)cc3)nc2Oc2cccc(OC)c2)cc(OC)c1 = > 50 µM
3) O=C(NNCc1ccc(Cl)cc1)Nc1cccc2ccccc12 = > 100 µM
4) Cc1cc(C(O)CN(C)C)cc2c1ccc1cc(C(C)C)ccc12 (stereo unspecified) = 4.48 µM
5) CC(=O)Oc1ccc2c(c1)CC[C@@H]1C2CC[C@]2(C)C(=O)NC(=O)CC12 (stereo partly specified) = > 100 µM
6) Cc1ccc(S(=O)(=O)n2cc(C#N)c(C#N)c2)cc1 = 72.4 µM

Short answer for CC1CC2(C)CC(=O)C1C1C(=O)N(CCN3CCCCC3)C(=O)C12 (stereo unspecified) : TGI was > 100 µM

Short answer for `N/C(=N\Nc1ccc(S(N)(=O)=O)cc1)c1cnccn1` : TGI was > 100 µM

Short answer for NC1=NCC(CN2CCCC2)O1 (stereo unspecified) : TGI was > 100 µM

Short answer for `Cc1ccc(-c2n[nH]c(=O)n2/N=C\c2ccccc2)cc1` : TGI was > 100 µM

Short answer for `CC(NC(=O)c1ccccc1)(C(=O)O)C(=O)O` : TGI was > 100 µM

----------
Notes on GI50 obtained with SR leukemia.

1. CC1=C(C(=O)Nc2ccc(Cl)c(Cl)c2)C(c2ccccc2O)NC(=O)N1 (stereo not given) = 39900 nM

// molecule `COc1cc(NC(=O)Nc2cnc(Nc3ccc(N4CCOCC4)cc3)nc2Oc2cccc(OC)c2)cc(OC)c1` , assay SR leukemia, GI50 value: 2710 nM

// molecule `Nc1[nH]c(=O)ncc1CO` , assay SR leukemia, GI50 value: > 100000 nM

// molecule `OCNCCNc1nc2ccccc2c2[nH]c3ccccc3c12` , assay SR leukemia, GI50 value: 902 nM

----------
- System: 786-0 renal
- measurement description: NCI tumour cell line growth inhibition, 48 h
Measured TGI values are reported for all entries that follow.

Reference set, count: 3
1. C#CCN(Cc1ccc2nc(N)[nH]c(=O)c2c1)c1ccc(C(=O)NC(CCC(=O)O)C(=O)O)cc1 (stereo unspecified) = > 100 µM
2. COc1ccc2nc3n(c2c1)CCc1cc(OC)c(OC)cc1-3 = > 100 µM
3. COc1cc2c(c(OC)c1OC)-c1ccc(SC)c(=O)cc1[C@@H](NC(=O)c1ccc(Cl)cc1)CC2 = 15.8 µM

Shift focus to the following entry.
Short answer for COc1ccccc1NC(=O)C(CC(C(=O)Nc1ccccc1OC)/C(C)=N/Nc1ccc([N+](=O)[O-])cc1[N+](=O)[O-])/C(C)=N/Nc1ccc([N+](=O)[O-])cc1[N+](=O)[O-] (stereo unspecified) : TGI was > 100 µM
